- SYSTEM TESTED: T1, human FcRn (Biorbyt, cat. no. orb84388) (human, UniProt P55899 24-297; P61769 21-119, limits assumed)
- T1 construct: Bought soluble protein; not biotinylated on Biacore chips and ELISA coat; also called hFcRn
- T1 sequence (P55899 24-297 limits assumed, chain 1 of 2): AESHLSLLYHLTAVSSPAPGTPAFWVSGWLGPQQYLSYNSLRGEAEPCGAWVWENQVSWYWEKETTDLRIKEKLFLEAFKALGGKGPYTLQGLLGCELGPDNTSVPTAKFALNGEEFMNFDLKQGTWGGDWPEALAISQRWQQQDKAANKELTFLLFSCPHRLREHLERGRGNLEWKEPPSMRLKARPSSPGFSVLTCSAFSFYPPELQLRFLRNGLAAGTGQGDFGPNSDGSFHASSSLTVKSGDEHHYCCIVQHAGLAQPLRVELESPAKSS
- T1 sequence (P61769 21-119 limits assumed, chain 2 of 2): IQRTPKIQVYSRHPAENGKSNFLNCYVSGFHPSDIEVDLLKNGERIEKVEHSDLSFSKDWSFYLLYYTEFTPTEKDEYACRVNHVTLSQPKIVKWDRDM
- TEST METHOD NOTES: SPR Biacore, hFcRn immobilised; sample after 2 weeks at 37 °C (2 w)
- Experimental: The His₆-tagged Z variants were further assessed in terms of preserved binding capacity to FcRn after introduction of alterations in the scaffold, as well as after having been subjected to the stability test, i.e. incubated at 37° C. for 2 weeks. Comparative kinetic constants (kₒₙ and koff) and affinities (KD) were determined using a Biacore 2000 instrument. […] Kinetic constants were calculated from the sensorgrams using the Langmuir 1:1 model of the BiaEvaluation software 4.1 (GE Healthcare). […]
pKd: −log10 of the molar value.
RESULT TYPE: pKd

INSERT INTO results (binder, observed_result) VALUES
  ('His6-tagged Z17348 (designed binder) MGSSHHHHHHLQAEAKYAKEQDAAAHEIRWLPNLTFDQRVAFIHKLARQPEQSSELLSEAKKLSESQAPK', 8.20);

Source of measurements: patent US20190284241A1
